Tested on: U2OS
Protocol notes: Incucyte cell viability with U2OS; note: unitless GR value; below 1 slowed growth and below 0 cell loss
Format: toxicity, cell-based
Measurement context: human, 24 h, 10 µM, compound concentration 10 uM, replicate number 1
Our labelling divides records by Growth Rate into ranges: lower band = under 0.7, central band = from 0.7 up to 0.8, upper band = 0.8 and over

Sample smiles	Measured target	Classification
Cc1noc(C)c1-c1cnc2c(-c3ccc(C(=O)O)cc3)cn([C@@H](C)c3ccccn3)c2c1	U2OS	upper band

Prompt: Hi, small favor: classify CCCCCCCC/C=C\CCCCCCCC(=O)NCc1ccc(O)c(OC)c1 by its Growth Rate when you get a moment.
Completion: upper band

Prompt: Hi, small favor: classify Cc1[nH]nc(C(F)(F)F)c1Cc1sc2c(c1C(=O)N1C[C@](C)(O)CO1)c(=O)n(C)c(=O)n2C(C)C by its Growth Rate when you get a moment.
Completion: central band

Prompt: Hi, small favor: classify Cc1ncsc1-c1ccc(CNC(=O)[C@@H]2C[C@@H](O)CN2C(=O)[C@@H](NC(=O)CCCCNC(=O)c2ccc(-c3ccc(N4CCN(C)CC4)c(NC(=O)c4c[nH]c(=O)cc4C(F)(F)F)c3)cc2)C(C)(C)C)cc1 by its Growth Rate when you get a moment.
Completion: lower band

Prompt: Hi, small favor: classify COc1cc(-c2cn(C)c(=O)c3cnccc23)c(OC)cc1CN(C)C by its Growth Rate when you get a moment.
Completion: upper band

Prompt: Hi, small favor: classify Nc1ncc2c(n1)-c1c([nH]c3ccc(C4CC4)cc13)CCCC2 by its Growth Rate when you get a moment.
Completion: upper band

Prompt: Hi, small favor: classify CN1CCC(F)(Cn2cnc(-c3ccc(F)cn3)c2-c2ccnc3[nH]ccc23)CC1 by its Growth Rate when you get a moment.
Completion: upper band

Prompt: Hi, small favor: classify CN(C)C/C=C/C(=O)Nc1cccc(S(=O)(=O)N2CCC(NC(=O)c3n[nH]cc3NC(=O)c3c(Cl)cc(Cl)cc3Cl)CC2)c1 by its Growth Rate when you get a moment.
Completion: lower band

Prompt: Hi, small favor: classify Cc1ccc(NC(=O)c2ccc3cnccc3c2)cc1C(=O)Nc1cnc(Nc2cccc(NC3CCN(C(=O)/C=C/CN(C)C)CC3)c2)nc1 by its Growth Rate when you get a moment.
Completion: lower band

Prompt: Hi, small favor: classify Cc1c[nH]c(-c2cnc(NCCNc3ccc(C#N)cn3)nc2-c2ccc(Cl)cc2Cl)n1 by its Growth Rate when you get a moment.
Completion: lower band

Prompt: Hi, small favor: classify CCNC1=N[C@@H]2[C@@H](O)[C@H](O)[C@@H](CO)O[C@@H]2S1 by its Growth Rate when you get a moment.
Completion: upper band

Prompt: Hi, small favor: classify CC(C)[C@@H]1CC[C@@H](C)C[C@@H]1P(=O)(c1ccccc1)c1ccccc1 by its Growth Rate when you get a moment.
Completion: central band

Prompt: Hi, small favor: classify CO[C@H](C)CN1CC[C@]2(C)c3cccc(O)c3C[C@H]1C2(C)C.Cl by its Growth Rate when you get a moment.
Completion: upper band
